Listed next: entries and their corresponding pKd.
test system: T1, monovalent hVISTA-ECD (human VISTA extracellular domain with His tail) (human, UniProt Q9H7M9 33-193)
T1 construct: analyte flowed over captured antibody; also called huVISTA-His
T1 sequence (Q9H7M9 other isoform, or with tags, fused parts or gaps limits assumed): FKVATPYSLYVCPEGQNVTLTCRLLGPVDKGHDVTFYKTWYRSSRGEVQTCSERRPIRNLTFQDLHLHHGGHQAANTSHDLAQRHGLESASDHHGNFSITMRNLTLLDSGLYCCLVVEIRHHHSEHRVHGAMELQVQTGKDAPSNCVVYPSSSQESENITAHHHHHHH
protocol notes: SPR, pH 7.4
The value called pKd is obtained by taking minus log10 of the concentration in mol/L.

P1-065333 (41F11_VH_T28P/Y50W/S55E/L96E/Y100E VK_A64G) (antibody, human IgG1, kappa, V domains shown, IgG1.3; also called P1-065333-1; VISTA.4 pH-independent progeny) VH: QVQLVESGGGLVKPGGSLRLSCAASGFPFSDYYMSWIRQAPGKGLEWVSWISNSGEPIYYADSVKGRFTISRDNAKNSLYLQMNSLRAEDTAVYYCARDEPGWEFDLWGRGTLVTVSS VL: EIVLTQSPATLSLSPGERATLSCRASQSVSSYLAWYQQKPGQAPRLLIYDASNRATGIPARFSGSGSGTDFTLTISSLEPEDFAVYYCQQRNNWPRTFGQGTKVEIKR : 8.72

Shift focus to the following entry.
In: Can you look up the measured pKd of P1-064391 (41F11_HC_Mutant: D31E/Y50W/S55E/Y100E 41F11_LC_Mutant: V29D/A64G/R91T) (antibody, V domains shown, Kabat positions; also called P1-064391-1) VH: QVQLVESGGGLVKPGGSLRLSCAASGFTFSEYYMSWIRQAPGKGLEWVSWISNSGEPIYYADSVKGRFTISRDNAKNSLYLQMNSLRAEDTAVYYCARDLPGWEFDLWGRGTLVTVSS VL: EIVLTQSPATLSLSPGERATLSCRASQSDSSYLAWYQQKPGQAPRLLIYDASNRATGIPARFSGSGSGTDFTLTISSLEPEDFAVYYCQQTNNWPRTFGQGTKVEIK for me?
Out: 7.43
